Data origin, for the record: paper PMC9322122

Can you tell me viability at 10 µM for the items I'm about to list?
- protocol: Cell viability (WST-1), A549
- Assay type: cell-based
- measurement-setup: human, A549 cells, mean ± SEM, n = 3
Numbers only here, please. The scale is %.

Summary for this molecule, FC(F)(F)c1ccc(CNC(=S)Nc2ccc3ncnc(Nc4cccc(Cl)c4)c3c2)cc1 [Compound 3] : viability at 10 µM is 73.4

Summary for this molecule, O=C(NCc1cccc(Cl)c1)Nc1ccc2ncnc(Nc3cccc(Cl)c3)c2c1 [Compound 12] : viability at 10 µM is 101

Summary for this molecule, O=C(NCc1cccc(F)c1)Nc1ccc2ncnc(Nc3cccc(Cl)c3)c2c1 [Compound 13] : viability at 10 µM is 104

Summary for this molecule, COc1cccc(CNC(=S)Nc2ccc3ncnc(Nc4cccc(Cl)c4)c3c2)c1 [Compound 8] : viability at 10 µM is 101

Summary for this molecule, S=C(NCc1ccco1)Nc1ccc2ncnc(Nc3cccc(Cl)c3)c2c1 [Compound 10] : viability at 10 µM is 74.4
